Numbers sourced from patent US20250215012A1.

- Assayed system: IKZF2 (Homo sapiens (Human), UniProt Q96SW2+Q9UKS7)
- Sequence (Q9UKS7 whole entry): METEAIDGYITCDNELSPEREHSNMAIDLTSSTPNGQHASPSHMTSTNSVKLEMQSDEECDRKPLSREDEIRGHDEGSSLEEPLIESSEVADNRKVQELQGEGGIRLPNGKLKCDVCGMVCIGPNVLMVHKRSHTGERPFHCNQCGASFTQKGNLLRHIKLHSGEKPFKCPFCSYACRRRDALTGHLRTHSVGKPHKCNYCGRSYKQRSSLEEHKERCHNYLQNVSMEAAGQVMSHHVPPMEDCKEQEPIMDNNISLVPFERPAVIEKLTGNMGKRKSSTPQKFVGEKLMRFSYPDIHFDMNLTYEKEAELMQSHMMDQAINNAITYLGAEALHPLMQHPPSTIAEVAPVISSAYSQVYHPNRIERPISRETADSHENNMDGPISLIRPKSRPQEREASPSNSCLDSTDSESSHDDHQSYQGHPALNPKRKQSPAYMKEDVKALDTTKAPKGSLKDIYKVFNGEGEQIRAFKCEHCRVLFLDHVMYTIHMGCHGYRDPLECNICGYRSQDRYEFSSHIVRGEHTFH
- Sequence (Q96SW2 whole entry): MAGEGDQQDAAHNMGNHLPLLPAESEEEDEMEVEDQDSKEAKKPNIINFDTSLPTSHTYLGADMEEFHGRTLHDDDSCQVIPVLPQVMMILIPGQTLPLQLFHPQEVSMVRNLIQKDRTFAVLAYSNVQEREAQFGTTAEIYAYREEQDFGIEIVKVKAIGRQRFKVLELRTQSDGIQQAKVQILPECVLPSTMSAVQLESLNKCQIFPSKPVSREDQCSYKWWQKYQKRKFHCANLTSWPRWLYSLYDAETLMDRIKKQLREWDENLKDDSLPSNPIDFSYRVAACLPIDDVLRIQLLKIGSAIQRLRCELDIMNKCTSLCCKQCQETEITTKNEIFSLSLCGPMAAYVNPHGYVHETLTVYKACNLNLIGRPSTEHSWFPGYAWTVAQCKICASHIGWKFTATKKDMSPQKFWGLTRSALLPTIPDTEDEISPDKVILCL
- Sequence (Q16531 whole entry partner): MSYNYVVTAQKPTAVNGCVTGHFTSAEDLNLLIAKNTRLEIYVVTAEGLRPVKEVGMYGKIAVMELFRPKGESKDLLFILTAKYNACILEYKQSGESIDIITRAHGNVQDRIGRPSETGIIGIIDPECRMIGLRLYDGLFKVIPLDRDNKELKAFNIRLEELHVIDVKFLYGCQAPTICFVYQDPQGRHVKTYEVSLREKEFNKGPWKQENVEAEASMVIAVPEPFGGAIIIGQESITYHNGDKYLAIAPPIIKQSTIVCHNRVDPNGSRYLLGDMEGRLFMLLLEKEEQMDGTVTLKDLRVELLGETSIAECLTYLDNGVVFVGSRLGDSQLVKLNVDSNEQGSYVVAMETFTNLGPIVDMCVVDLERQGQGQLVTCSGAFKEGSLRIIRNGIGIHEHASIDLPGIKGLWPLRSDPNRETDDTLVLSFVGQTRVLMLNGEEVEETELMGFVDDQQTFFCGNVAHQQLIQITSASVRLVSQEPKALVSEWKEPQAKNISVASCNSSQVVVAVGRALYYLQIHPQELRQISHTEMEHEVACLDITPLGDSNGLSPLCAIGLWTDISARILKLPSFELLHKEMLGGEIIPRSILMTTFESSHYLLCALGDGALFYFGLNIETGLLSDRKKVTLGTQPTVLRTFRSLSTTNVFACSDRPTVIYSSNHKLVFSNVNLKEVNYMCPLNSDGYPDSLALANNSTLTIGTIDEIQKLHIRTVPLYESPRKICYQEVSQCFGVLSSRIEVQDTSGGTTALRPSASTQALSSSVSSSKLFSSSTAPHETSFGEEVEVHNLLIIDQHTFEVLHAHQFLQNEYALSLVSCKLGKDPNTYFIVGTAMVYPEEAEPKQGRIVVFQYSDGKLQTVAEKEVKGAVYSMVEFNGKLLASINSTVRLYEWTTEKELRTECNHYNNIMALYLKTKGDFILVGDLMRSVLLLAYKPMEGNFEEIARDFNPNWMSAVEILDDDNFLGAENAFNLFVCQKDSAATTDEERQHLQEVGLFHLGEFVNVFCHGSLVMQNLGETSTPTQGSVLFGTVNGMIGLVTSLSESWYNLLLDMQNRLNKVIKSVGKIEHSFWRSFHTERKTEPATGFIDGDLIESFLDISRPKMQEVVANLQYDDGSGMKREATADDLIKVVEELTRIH
- Method: IKZF2 HiBiT Assay (Jurkat-IKZF2-HiBiT cell line)
- Assay type: cell-based
- Run conditions: Jurkat-IKZF2-HiBiT cells, 24 hours; read-out: HiBit assay degradation analysis Dmax
Reported property: Dmax

The cases that follow already have their Dmax on record.
O=C1CCC(N2Cc3c(ccc4c3OCC43CCN(CC4CCOCC4)CC3)C2=O)C(=O)N1 (centres unmarked); < 40%
O=C1CCC(N2Cc3c(ccc4c3OCC43CCN(Cc4cccc(Cl)c4)CC3)C2=O)C(=O)N1 (centres unmarked); 60 to 80%
O=C1CCC(N2Cc3c(ccc4c3OCCC43CCN(Cc4ccc(Cl)cc4F)CC3)C2=O)C(=O)N1 (centres unmarked); < 40%
CC(C)(O)Cn1cc(-c2cccc(CN3CCC4(CC3)COc3c4ccc4c3CN([C@H]3CCC(=O)NC3=O)C4=O)c2)cn1; 60 to 80%
O=C1CCC(N2Cc3c(ccc4c3OCC43CCN(Cc4cccn5nccc45)CC3)C2=O)C(=O)N1 (centres unmarked); 40 to 60%
O=C1CCC(N2Cc3c(ccc4c3OCC43CCN(Cc4ccc(OCc5ccccc5)cn4)CC3)C2=O)C(=O)N1 (centres unmarked); < 40%
COCCn1ncc2cc(CN3CCC4(CC3)COc3c4ccc4c3CN(C3CCC(=O)NC3=O)C4=O)ccc21 (centres unmarked); < 40%
Cn1cc(-c2cccc(CN3CCC4(CC3)CNc3c4ccc4c3CN(C3CCC(=O)NC3=O)C4=O)c2)cn1 (centres unmarked); 40 to 60%

Need Dmax of O=C1CCC(N2Cc3c(ccc4c3OCC43CCN(Cc4ccc5oncc5c4)CC3)C2=O)C(=O)N1 (centres unmarked) , thanks. 40 to 60%

Same thing, different compound: COc1ccc(C(=O)Nc2cccc(CN3CCC4(CC3)OCc3c4ccc4c3CN(C3CCC(=O)NC3=O)C4=O)c2)cc1 (centres unmarked) 60 to 80%

Likewise for Cn1cc(CN2CCC3(CC2)COc2c3ccc3c2CN(C2CCC(=O)NC2=O)C3=O)c(Cl)n1 (centres unmarked) ? < 40%

Try this compound too: O=C1CCC(N2Cc3c(ccc4c3OCC43CCN(Cc4cnn5c4CCCC5)CC3)C2=O)C(=O)N1 (centres unmarked) 40 to 60%

Same again, this time with CC1(C)CCc2cccc(CN3CCC4(CC3)COc3c4ccc4c3CN(C3CCC(=O)NC3=O)C4=O)c2O1 (centres unmarked) 60 to 80%

// same read-out, input: O=C1CCC(N2Cc3c(ccc4c3OCC43CCN(Cc4ccn5ccnc5c4)CC3)C2=O)C(=O)N1 (centres unmarked) 40 to 60%

Repeat with O=C1CCC(N2Cc3c(ccc4c3OCC43CCN(Cc4ccc(OC(F)F)cc4)CC3)C2=O)C(=O)N1 (centres unmarked) < 40%

Ok, now Cc1[nH]c2c(CN3CCC4(CC3)COc3c4ccc4c3CN(C3CCC(=O)NC3=O)C4=O)cccc2c1C (centres unmarked) 60 to 80%
